- Protocol summary: ATG_BRE_CIS: Attagene CIS-FACTORIAL HepG2 Assay for human Bone Morphogenetic Protein (BMP) Response Element (BRE) (AID 2282933)
- Details: HepG2 BMP response element reporter, Attagene transcription factor profiling; actives raise or lower the signal
The source made the active and inactive calls. How the source made its calls: active means hit-call score of the fitted dose curve at least 0.9, where 1 is the maximum; inactive means score below 0.9.
Possible outcomes: yes for active, no for inactive

O=C1Nc2ccccc2C1(c1ccc(O)cc1)c1ccc(O)cc1 = no
CCOC(=O)CC = no
CC(C)(Oc1ccc(C2CC2(Cl)Cl)cc1)C(=O)O (stereo not drawn) = no
O=C(c1ccccc1)c1ccc(O)c(O)c1O = no
CN(C)c1ccc(C(=N)c2ccc(N(C)C)cc2)cc1 = yes
CCCC(=O)OCc1ccccc1 = no
CC1=NN(c2cc(S(=O)(=O)O)ccc2Cl)C(=O)C1N=Nc1ccccc1 (stereo not drawn) = no
CCc1ccc2c(c1)C(=O)c1ccccc1C2=O = no
CCCCCCCCCCCCCCCC[N+](C)(C)CC = no
C/C=C\C/C=C/CCCCCCCCOC(C)=O = yes
CC(C)=CCC[C@H](C)CCO = no
CC(C)CCCC(C)CC=O (stereo not drawn) = no
Nc1ncn([C@@H]2O[C@H](CO)[C@@H](O)[C@H]2O)c(=O)n1 = no

---

- Protocol summary: TOX21_PR_BLA_Followup_Agonist_viability: Viability Assessment in the Tox21 HEK293 Progesterone Receptor (PR) Agonism Beta-lactamase Follow-Up Assay (AID 2283935);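 further: cells exposed to compound for 16 hr at 37 °C; signal loss means lower viability so actives are cytotoxic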
Inconclusive results are not listed. Activity calls are given as the source filed them. The calls were made as follows: active = hit-call score of the fitted dose curve at least 0.9, where 1 is the maximum; inconclusive = response in the unintended direction; inactive = score below 0.9.
Readout label: AC50

CCOC(=O)c1ccccc1C(=C1C=C(Br)C(=O)C(Br)=C1)c1cc(Br)c(O)c(Br)c1 = inactive
COc1ccc(C(Cl)=C(c2ccc(OC)cc2)c2ccc(OC)cc2)cc1 = inactive
Cc1ccc(C(C)c2ccc(C)c(C)c2)cc1C = inactive
CC(=O)[C@H]1[C@H](C#N)C[C@H]2[C@@H]3CC=C4C[C@@H](O)CC[C@]4(C)[C@H]3CC[C@@]21C = inactive
C[C@]12C=CC(=O)C=C1CC[C@@H]1[C@@H]2[C@@H](O)C[C@@]2(C)[C@H]1CC[C@]2(O)C(=O)CO = inactive
CC(C)(c1cc(Br)c(OCCO)c(Br)c1)c1cc(Br)c(OCCO)c(Br)c1 = 32.2 µM (active)
CCC(=O)Oc1ccc(/C(CC)=C(\CC)c2ccc(OC(=O)CC)cc2)cc1 = inactive
C[C@]12CCC(=O)C=C1CC[C@@H]1[C@@H]2C(=O)C[C@@]2(C)[C@H]1CC[C@]2(O)C(=O)CO = inactive

---

- Protocol summary: ATG_TGFb_CIS: Attagene CIS-FACTORIAL HepG2 Assay for human Transforming Growth Factor (TGF) (AID 2282967)
- Details: HepG2 Attagene CIS TGFb reporter, mRNA transcription; actives raise or lower the signal
Activity calls are given as the source filed them. How the source made its calls: active means hit-call score of the fitted dose curve at least 0.9, where 1 is the maximum; inactive means score below 0.9.
Classes used: 1 for active, -1 for inactive

CCCCCCCCCCCCCCCC[n+]1ccccc1 = 1
CCOC(=O)Cc1cccc2ccccc12 = -1
COC(=O)C1=C(C)NC(C)=C(C(=O)OCC(C)C)C1c1ccccc1[N+](=O)[O-] (configuration not stated) = -1
C#CC1(O)CC[C@H]2[C@@H]3CCC4=CCCC[C@@H]4[C@H]3CC[C@@]21C (some centres not stated) = 1
C=C[Si](OC(C)=O)(OC(C)=O)OC(C)=O = -1
C[C@]12C=CC(=O)C=C1CC[C@@H]1[C@@H]2[C@@H](O)C[C@@]2(C)[C@H]1CC[C@]2(O)C(=O)CO = -1
CC(C)c1ccc(C#N)cc1 = -1
Nc1ccc(N=Nc2ccccc2)c(N)n1 = -1
C1CN(SSN2CCOCC2)CCO1 = -1
CC(C)c1ccc2c(C(C)C)cc(C(C)C)c(S(=O)(=O)O)c2c1 = -1
CC=CC(=O)N(CC)c1ccccc1C = -1
CC(C)(C)C(=O)CCc1ccc(Cl)cc1 = -1

---

- Tested system: Estrogen-related receptor gamma (Homo sapiens)
- Protocol summary: ATG_ERRg_TRANS: Attagene TRANS-FACTORIAL HepG2 Assay for human Estrogen-Related Receptor gamma (ERRg) (AID 2282977);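 further: hits increase reporter signal over DMSO so potencies reflect activators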
- Details: HepG2 Attagene TRANS reporter, ERRg transactivation
Records with an inconclusive call do not appear. The source made the active and inactive calls. How the source made its calls: active means hit-call score of the fitted dose curve at least 0.9, where 1 is the maximum; inconclusive means response in the unintended direction; inactive means score below 0.9.
Labels: active, inactive

CCc1nccnc1C = inactive
CCCOCCOCCOCCO = inactive
CCCCC(CC)COCC1CO1 (stereo unspecified) = inactive
C1CN(SSN2CCOCC2)CCO1 = inactive
CCCCCCCCCCCCCCCC[N+](C)(C)CC = active
O=c1cc[nH]c(=S)[nH]1 = inactive
OC1CCCC1 = inactive
C/C=C\C/C=C/CCCCCCCCOC(C)=O = inactive
CCCCCCCCCCc1ccccc1 = inactive
CCCCCCCCc1ccc(Nc2ccc(CCCCCCCC)cc2)cc1 = inactive
C#CC1(O)CC[C@H]2[C@@H]3CCC4=CCCC[C@@H]4[C@H]3CC[C@@]21C (stereo partly specified) = inactive

---

- Read-out: Transforming growth factor beta 1 (TGFb1), TGFB1 (gene 7040)
- Protocol summary: BSK_KF3CT_TGFb1: BioMAP Diversity Plus: KF3CT Assay for Transforming growth factor beta 1 (TGFb1) Biomarker Activity (AID 2283072)
- Details: primary human keratinocytes with fibroblasts; actives raise or lower the signal
Active and inactive are the calls of the source. Rule for the calls: active = hit-call score of the fitted dose curve at least 0.9, where 1 is the maximum; inactive = score below 0.9.
Readout label: AC50

CCCCNc1ccc(NCCCC)c2c1C(=O)c1ccccc1C2=O = inactive
C/C=C\C/C=C/CCCCCCCCOC(C)=O = 10.8 µM (active)
CCCCCCCCc1ccc(Nc2ccc(CCCCCCCC)cc2)cc1 = inactive
C=CC=CC=CCCCCC = inactive
CC(C)C(=O)C(C)C = inactive
c1ccc2c(c1)ccc1ncccc12 = inactive
C#CC1(O)CC[C@H]2[C@@H]3CCC4=CCCC[C@@H]4[C@H]3CC[C@@]21C (some centres undefined) = 25.4 µM (active)
CCCCCCCCCCCCCCCC[N+](C)(C)CC = 7.9 µM (active)
CCCCC/C=C\C/C=C\CCCCCCCC(=O)OC = 16.4 µM (active)
CC(C)(c1cc(Br)c(OCCO)c(Br)c1)c1cc(Br)c(OCCO)c(Br)c1 = 6.03 µM (active)
CCO[Si](CCCN=C=O)(OCC)OCC = inactive
O=c1c2ccccc2oc2ccccc12 = inactive
O=C(Cl)c1cc(C(=O)Cl)cc(C(=O)Cl)c1 = 28.2 µM (active)
CCCCC(CC)COC(=O)c1ccccc1O (centres undefined) = inactive

---

- Protocol summary: BSK_CASM3C_SRB: Viability Assessment in the BioMAP Diversity Plus: CASM3C Assay (AID 2283050);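 further: total protein by SRB staining as cytotoxicity measure in parallel cultures; cells exposed to compound for 24 h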
- Details: primary human coronary artery smooth muscle cells
Active and inactive are the calls of the source. The calls were made as follows: active = hit-call score of the fitted dose curve at least 0.9, where 1 is the maximum; inactive = score below 0.9.
Classes used: 1 (active), 0 (inactive)

CCO[Si](C)(OCC)OCC = 0
c1ccc(-c2ccccn2)nc1 = 0
CO[Si](OC)(OC)c1ccccc1 = 0
O=C(c1ccc(O)cc1)c1ccc(O)cc1O = 0
CCCCC(CC)COC(=O)c1ccccc1O (centres undefined) = 0
CCOC(=O)c1ccccc1C(=C1C=C(Br)C(=O)C(Br)=C1)c1cc(Br)c(O)c(Br)c1 = 0
CCO[Si](CCCN=C=O)(OCC)OCC = 0
C=CCOCC(O)CCl (centres undefined) = 0
CC(C)(c1cc(Br)c(OCCO)c(Br)c1)c1cc(Br)c(OCCO)c(Br)c1 = 0
CCCCC(CC)COCC1CO1 (centres undefined) = 0
CN1C(=O)N(C)C(O)C1O (centres undefined) = 0
C#CC1(O)CC[C@H]2[C@@H]3CCC4=CCCC[C@@H]4[C@H]3CC[C@@]21C (some centres undefined) = 1
O=C1CCCN1CCO = 0
C/C=C\C/C=C/CCCCCCCCOC(C)=O = 1

---

- Read-out: Interleukin-8 (IL8), CXCL8 (gene 3576)
- Protocol summary: BSK_LPS_IL8: BioMAP Diversity Plus: LPS Assay for Interleukin-8 (IL8) Biomarker Activity (AID 2283078)
- Details: primary human HUVEC with PBMC; actives raise or lower the signal
The source made the active and inactive calls. How the source made its calls: active means hit-call score of the fitted dose curve at least 0.9, where 1 is the maximum; inactive means score below 0.9.
Readout label: AC50

CCO[Si](C)(OCC)OCC = inactive
O=C1CCCN1CCO = inactive
CC1OC1C1CCC2(C)OC2C1 (stereo not drawn) = inactive
C/C=C\C/C=C/CCCCCCCCOC(C)=O = 34 µM (active)
O=c1c2ccccc2oc2ccccc12 = inactive
CCCCC(CC)COC(=O)c1ccccc1O (stereo not drawn) = inactive
O=C(c1ccc(O)cc1)c1ccc(O)cc1O = inactive
C=CC(=O)OCC(Br)CBr (stereo not drawn) = 12.5 µM (active)
CO[Si](OC)(OC)c1ccccc1 = inactive
O=C(Nc1ccccc1SSc1ccccc1NC(=O)c1ccccc1)c1ccccc1 = 5.19 µM (active)
CCO[Si](CCCN=C=O)(OCC)OCC = inactive
CCCCNc1ccc(NCCCC)c2c1C(=O)c1ccccc1C2=O = inactive
CC(C)(c1cc(Br)c(OCCO)c(Br)c1)c1cc(Br)c(OCCO)c(Br)c1 = inactive
S=C(NC1CCCCC1)NC1CCCCC1 = inactive
CCCCCCCCc1ccc(Nc2ccc(CCCCCCCC)cc2)cc1 = inactive
C#CC1(O)CC[C@H]2[C@@H]3CCC4=CCCC[C@@H]4[C@H]3CC[C@@]21C (stereo partly drawn) = 35 µM (active)
C=CC=CC=CCCCCC = inactive
CN1C(=O)N(C)C(O)C1O (stereo not drawn) = inactive
c1ccc(-c2ccccn2)nc1 = inactive
C=CCOCC(O)CCl (stereo not drawn) = inactive
C=CCOc1c(Br)cc(Br)cc1Br = inactive
COc1ccc2nc(N)sc2c1 = inactive
O=C(Cl)c1cc(C(=O)Cl)cc(C(=O)Cl)c1 = 28.8 µM (active)
